Below, each entry is listed alongside its reported self-cleavage.
B1: Hairpin Ribozyme (parent)
chain: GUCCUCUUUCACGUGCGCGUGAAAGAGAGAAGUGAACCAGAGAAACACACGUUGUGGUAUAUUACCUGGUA

- Variants of: B1
- ASSAY COMMENT: self-cleavage, relative activity (ratio to wild type); higher = more cleavage; co-transcriptional
MEASURE NAME: self-cleavage

VARIANT ANNOTATION: U7C G29U
MEASURED VALUE: 0.178
--
VARIANT ANNOTATION: A41G A71G
MEASURED VALUE: 1.08
--
VARIANT ANNOTATION: C10A U55C
MEASURED VALUE: 0.248
--
VARIANT ANNOTATION: U33A C48G
MEASURED VALUE: 0.123
--
VARIANT ANNOTATION: A26U A61C
MEASURED VALUE: 0.226
--
VARIANT ANNOTATION: G29A G68C
MEASURED VALUE: 0.143
--
VARIANT ANNOTATION: U9C C12A
MEASURED VALUE: 0.789
--
VARIANT ANNOTATION: A28G A49G
MEASURED VALUE: 0.637
--
VARIANT ANNOTATION: A24G U52G
MEASURED VALUE: 0.687
--
VARIANT ANNOTATION: U9C C50A
MEASURED VALUE: 0.215
--
VARIANT ANNOTATION: A28U G56U
MEASURED VALUE: 0.0609
--
VARIANT ANNOTATION: C12G G25C
MEASURED VALUE: 0.489
--
VARIANT ANNOTATION: G21U U60C
MEASURED VALUE: 1.08
--
VARIANT ANNOTATION: A43G C66G
MEASURED VALUE: 0.0518
--
VARIANT ANNOTATION: C50G G57A
MEASURED VALUE: 0.0857
--
VARIANT ANNOTATION: U55G G56C
MEASURED VALUE: 0.107
--
VARIANT ANNOTATION: A22G C46U
MEASURED VALUE: 0.0765
--
VARIANT ANNOTATION: A28U U60A
MEASURED VALUE: 0.493
--
VARIANT ANNOTATION: C12A G69A
MEASURED VALUE: 0.289
--
VARIANT ANNOTATION: A28G A36G
MEASURED VALUE: 1.16
--
VARIANT ANNOTATION: U58G A71U
MEASURED VALUE: 0.455
--
VARIANT ANNOTATION: A39G G68U
MEASURED VALUE: 0.107
--
VARIANT ANNOTATION: A41C U55C
MEASURED VALUE: 0.484
--
VARIANT ANNOTATION: U9C C66U
MEASURED VALUE: 0.513
--
VARIANT ANNOTATION: G25A A36C
MEASURED VALUE: 0.301
--
VARIANT ANNOTATION: C10A U55G
MEASURED VALUE: 0.303
--
VARIANT ANNOTATION: A23G A26U
MEASURED VALUE: 0.842
--
VARIANT ANNOTATION: A36G U63C
MEASURED VALUE: 0.201
--
VARIANT ANNOTATION: G25A G54A
MEASURED VALUE: 0.292
--
VARIANT ANNOTATION: A28C G42C
MEASURED VALUE: 0.109
--
VARIANT ANNOTATION: U5A G32A
MEASURED VALUE: 0.158
--
VARIANT ANNOTATION: U8C U63C
MEASURED VALUE: 0.132
--
VARIANT ANNOTATION: C6G G27U
MEASURED VALUE: 0.161
--
VARIANT ANNOTATION: U8A G27U
MEASURED VALUE: 0.208
--
VARIANT ANNOTATION: A49C U70G
MEASURED VALUE: 0.0833
--
VARIANT ANNOTATION: G57U U67C
MEASURED VALUE: 0.116
--
VARIANT ANNOTATION: C3G A11U
MEASURED VALUE: 0.28
--
VARIANT ANNOTATION: U9G A26G
MEASURED VALUE: 0.386
--
VARIANT ANNOTATION: U2C U60C
MEASURED VALUE: 0.222
--
VARIANT ANNOTATION: G29C G34C
MEASURED VALUE: 0.116
--
VARIANT ANNOTATION: A47U G69U
MEASURED VALUE: 0.138
--
VARIANT ANNOTATION: C10G U55G
MEASURED VALUE: 0.195
--
VARIANT ANNOTATION: A35G G57C
MEASURED VALUE: 0.268
--
VARIANT ANNOTATION: G34C C66A
MEASURED VALUE: 0.693
--
VARIANT ANNOTATION: G42C U62C
MEASURED VALUE: 0.221
--
VARIANT ANNOTATION: U14A A31U
MEASURED VALUE: 0.124
